- system.tested: Sodium channel protein type 3 subunit alpha (Homo sapiens, UniProt Q9NY46)
- Sequence (Q9NY46 whole entry): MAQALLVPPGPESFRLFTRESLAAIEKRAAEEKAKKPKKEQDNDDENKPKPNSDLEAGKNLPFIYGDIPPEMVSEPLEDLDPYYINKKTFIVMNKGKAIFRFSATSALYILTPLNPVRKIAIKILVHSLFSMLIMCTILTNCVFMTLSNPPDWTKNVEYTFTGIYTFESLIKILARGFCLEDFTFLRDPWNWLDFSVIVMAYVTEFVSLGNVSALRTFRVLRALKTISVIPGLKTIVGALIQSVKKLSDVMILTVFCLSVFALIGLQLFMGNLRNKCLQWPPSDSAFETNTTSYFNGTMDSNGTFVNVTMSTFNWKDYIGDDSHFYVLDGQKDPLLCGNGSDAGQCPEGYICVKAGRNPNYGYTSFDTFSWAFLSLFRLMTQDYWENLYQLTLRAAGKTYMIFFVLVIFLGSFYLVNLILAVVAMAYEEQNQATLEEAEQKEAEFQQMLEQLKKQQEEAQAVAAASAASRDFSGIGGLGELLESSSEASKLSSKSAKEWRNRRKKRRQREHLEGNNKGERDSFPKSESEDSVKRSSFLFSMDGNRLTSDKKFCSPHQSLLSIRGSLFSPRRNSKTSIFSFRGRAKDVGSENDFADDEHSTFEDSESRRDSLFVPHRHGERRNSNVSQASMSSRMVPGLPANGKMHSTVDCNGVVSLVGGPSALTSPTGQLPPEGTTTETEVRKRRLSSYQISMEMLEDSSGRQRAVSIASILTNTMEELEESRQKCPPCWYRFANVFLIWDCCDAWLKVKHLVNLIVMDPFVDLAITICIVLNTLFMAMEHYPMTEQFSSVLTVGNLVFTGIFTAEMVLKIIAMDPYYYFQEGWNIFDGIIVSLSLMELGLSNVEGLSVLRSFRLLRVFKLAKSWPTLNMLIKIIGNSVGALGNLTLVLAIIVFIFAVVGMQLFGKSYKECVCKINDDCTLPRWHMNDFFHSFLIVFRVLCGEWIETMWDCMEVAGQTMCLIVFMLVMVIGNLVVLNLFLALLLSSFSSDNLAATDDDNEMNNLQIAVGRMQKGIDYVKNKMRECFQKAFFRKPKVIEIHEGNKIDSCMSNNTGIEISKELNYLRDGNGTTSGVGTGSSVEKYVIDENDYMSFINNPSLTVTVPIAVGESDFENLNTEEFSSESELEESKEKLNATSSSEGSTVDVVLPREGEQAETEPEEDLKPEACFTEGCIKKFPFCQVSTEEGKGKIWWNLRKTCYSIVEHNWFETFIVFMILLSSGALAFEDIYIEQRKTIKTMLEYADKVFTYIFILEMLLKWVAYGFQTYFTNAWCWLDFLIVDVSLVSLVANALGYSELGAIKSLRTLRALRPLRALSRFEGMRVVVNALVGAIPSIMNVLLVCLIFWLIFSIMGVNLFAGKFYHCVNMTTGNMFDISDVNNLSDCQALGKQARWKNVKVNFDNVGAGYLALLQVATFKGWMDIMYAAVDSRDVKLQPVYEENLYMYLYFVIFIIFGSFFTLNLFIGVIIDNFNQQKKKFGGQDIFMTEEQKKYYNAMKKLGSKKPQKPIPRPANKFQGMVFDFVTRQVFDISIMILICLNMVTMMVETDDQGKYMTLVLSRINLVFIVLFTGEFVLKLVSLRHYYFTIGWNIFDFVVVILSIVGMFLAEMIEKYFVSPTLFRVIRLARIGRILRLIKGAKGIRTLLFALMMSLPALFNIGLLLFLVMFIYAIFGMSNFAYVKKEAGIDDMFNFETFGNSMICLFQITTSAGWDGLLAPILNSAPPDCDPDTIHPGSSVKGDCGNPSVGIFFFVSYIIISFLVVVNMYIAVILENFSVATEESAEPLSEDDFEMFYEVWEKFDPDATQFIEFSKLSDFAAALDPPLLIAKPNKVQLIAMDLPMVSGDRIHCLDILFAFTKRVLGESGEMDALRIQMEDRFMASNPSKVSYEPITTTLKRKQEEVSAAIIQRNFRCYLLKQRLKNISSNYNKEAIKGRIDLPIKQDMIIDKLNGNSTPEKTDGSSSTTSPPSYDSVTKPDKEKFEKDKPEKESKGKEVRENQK
- experimental.protocol: Binding affinity to human recombinant Nav1.3 by radioligand binding assay
measured.parameter: Kd
Write your answer as a measured quantity: the number, then the unit.

Cc1nn([C@@H]2CCN([C@H](C)c3cc(Cl)cc(Cl)c3)C2)c2cc(F)c(C(=O)NS(=O)(=O)C3CC3)cc12 110 nM

// field: Kd; key: CS(=O)(=O)NC(=O)c1cc(C2CC2)c(OCC2CCN(Cc3cc(C(F)(F)F)ccc3Cl)CC2)cc1F ; value = 180 nM

----------
- system.tested: Sodium channel protein type 3 subunit alpha (Homo sapiens, UniProt Q9NY46)
- experimental.protocol: Inhibition of human Nav1.3 expressed in HEK293 cells by electrophysiology assay
- Type: cell-based
pIC50: −log10 of the molar value.
measured.parameter: pIC50

// field: pIC50; key: COc1cc(-c2cc(F)cc(Cl)c2)c(F)cc1-n1c(=O)ccc2cc(S(=O)(=O)Nc3ccon3)ccc21 ; value = < 4.85
